- Tested Target: Torsin-1A (Homo sapiens)
- Protocol Summary: torsin A binders from cell lysate, primary screen, small-molecule microarray, wild-type, 635/667 nm (AID 1149)
- Study Conditions: COS7 hTOR1A-WT lysate, 635 nm fluorescence, higher = more signal
Rule: composite z-score under 0.1 gives 0, otherwise 1.

Consider the worked cases shown below.
CC(C)C(=C=CC[C@H](O)c1cccc(OCCO)c1)C[C@H](O)c1cc(Cl)cc(Cl)c1O	1
COCCOC(=O)N1C(=O)[C@@]2(c3cc(C#CC4=CCCCC4)ccc31)[C@H](C(N)=O)[C@H]1C(=O)O[C@H](c3ccccc3)[C@H](c3ccccc3)N1[C@@H]2c1ccccc1OCCO	1

[ask] Reported composite z-score at or above 0.1? CC(C)[Si](C#C[Si](C(C)C)(C(C)C)C(C)C)(O[C@H](C)c1cn([C@H](CO)Cc2ccccc2)nn1)C(C)C
[reply] 1

[ask] Consider next the molecule COC(=O)c1c2oc(c1C(=O)OC)C(=O)N(C)Cc1cn(nn1)C[C@H](Cc1ccccc1)NC(=O)N[C@H](CO)CC2 in the same way.
[reply] 0

[ask] Param item: CCOC(=O)C[C@H]1[C@H](OC(=O)c2cc3ccccc3oc2=O)[C@@H](NC(=O)c2ccc(-c3ccccc3)cc2)c2cc(OCCCO)ccc2N1C(=O)c1ccc2ccccc2n1
[reply] 1

[ask] Same again, this time with C[C@]1(C(=O)NC2CC2)c2ccccc2C(=O)N(Cc2ccccc2)[C@H]1c1ccc(CO)cc1
[reply] 1

[ask] Let us now turn to COc1cc2c(cc1OC)CN(C(=O)[C@@H]1[C@H]3C(=O)O[C@H](c4ccccc4)[C@H](c4ccccc4)N3[C@H](c3ccc(OCCO)cc3)[C@@]13C(=O)Nc1ccc(C#CC4(O)CCCCCC4)cc13)CC2
[reply] 1

[ask] And then C=CCC(OC(C)=O)[C@@H]1[C@@H](N(Cc2ccc(-c3ccccc3)cc2)C(=O)Cc2ccc(F)cc2)c2cc(OCCCO)ccc2N1C(=O)Cc1ccc(OC)cc1 (some centres not stated) , what is it?
[reply] 1

[ask] Input COC(=O)[C@@]1(Cc2ccccc2)[C@@H]2C(=CC(=O)[C@H]2CC(=O)C(=O)N(C)C)CN1C(=O)c1ccccc1
[reply] 1

[ask] CCOC(=O)C[C@H]1[C@H](OC(=O)c2ccccc2-c2ccccc2)[C@@H](NC(=O)c2ccc(-c3ccccc3)cc2)c2cc(OCCCO)ccc2N1C(=O)c1ccc2ccccc2n1 , same question.
[reply] 1

[ask] Another molecule: COC(=O)[C@H](Cc1ccccc1)N1CC(/C=C/C2CC2)=C[C@H]1[C@H](O)Cc1ccccc1
[reply] 1
